molecular target: UniProt P00797
Sequence (P00797 whole entry): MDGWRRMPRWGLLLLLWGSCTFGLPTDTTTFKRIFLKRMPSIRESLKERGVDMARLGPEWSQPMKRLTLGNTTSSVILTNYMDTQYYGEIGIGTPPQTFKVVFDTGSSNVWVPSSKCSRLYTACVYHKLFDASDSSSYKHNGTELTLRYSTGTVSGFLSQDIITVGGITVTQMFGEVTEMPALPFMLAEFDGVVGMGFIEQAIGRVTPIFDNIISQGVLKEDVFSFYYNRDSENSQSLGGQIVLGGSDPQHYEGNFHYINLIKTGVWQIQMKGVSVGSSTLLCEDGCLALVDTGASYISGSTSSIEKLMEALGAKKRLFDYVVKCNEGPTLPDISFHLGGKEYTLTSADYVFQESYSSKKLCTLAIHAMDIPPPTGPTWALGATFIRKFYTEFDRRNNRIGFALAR
Each entry below lists one item and its recorded IC50 value.
value.kind: IC50 (nM)

* CCCc1nc(-c2cccnc2)cn2c(C(Cc3cccnc3)C(=O)NC(CC3CCCCC3)C(=O)C(F)(F)C(=O)NCCC(C)C)nnc12 (stereo unspecified) | 1.8
* CC(C)Cc1nc(-c2ccccc2)cn2c(CC(=O)NC(CC3CCCCC3)C(=O)C(F)(F)C(=O)NC(CC(C)C)C(=O)NCc3ccccn3)nnc12 (stereo unspecified) | 1.9
* CC(C)CCNC(=O)C(F)(F)C(=O)C(CC1CCCCC1)NC(=O)Cc1nnc2c(CC(C)C)nc(-c3ccccc3)cn12 (stereo unspecified) | 38
* CCCc1nc(-c2cccnc2)cn2c(CC(=O)NC(CC3CCCCC3)C(=O)C(F)(F)C(=O)NCCC(C)C)nnc12 (stereo unspecified) | 1.6
* CC(C)Cc1nc(-c2ccccc2)cn2c([C@H](Cc3cccnc3)C(=O)N[C@@H](CC3CCCCC3)C(N)CC(=O)NC(CC(C)C)C(=O)NCc3ccccn3)nnc12 (stereo in doubt; 13b) | 100
* CCCc1nc(-c2cccnc2)cn2c(CC(=O)NC(CC3CCCCC3)C(=O)C(F)(F)C(=O)NCC(C)CC)nnc12 (stereo unspecified) | 1.7

Origin of measurements: ChEMBL document CHEMBL1125716
